- Assay name: Compound was evaluated In vitro for inhibition of aldose reductase activity by 50% in rat RBC
pIC50: −log10 of the molar value.
Endpoint name: pIC50

[
  {
    "Compound": "COc1ccc2c(C(=S)N(C)CC(=O)O)cccc2c1C(F)(F)F",
    "Numeric value": 7.57
  },
  {
    "Compound": "O=C1CC2(C(=O)N1)C(=O)N(Cc1ccc(Br)cc1F)C(=O)c1ccc(F)cc12 (configuration not stated)",
    "Numeric value": 7.57
  }
]

###

- Assay name: Half-life In vitro
- Assay type: ADME
Endpoint name: half-life (h)

These recorded examples may help you get a feel for the data.
[
  {
    "Structure": "O=C1C[C@@]2(C(=O)N1)C(=O)N(Cc1ccc(Br)cc1F)C(=O)c1ccccc12",
    "Output unit": "h",
    "half-life": 4
  },
  {
    "Structure": "O=C1C[C@]2(C(=O)N1)C(=O)N(Cc1ccc(Br)cc1F)C(=O)c1ccc(F)cc12",
    "Output unit": "h",
    "half-life": 0.5
  }
]

P: O=C1C[C@@]2(C(=O)N1)C(=O)N(Cc1ccc(Br)cc1F)C(=O)c1ccc(F)cc12
Q: O=C1C[C@]2(C(=O)N1)C(=O)N(Cc1ccc(Br)cc1F)C(=O)c1ccccc12
Short answer wanted: higher half-life, P or Q ? Which one? Tell me its label. Q
(Q: 4 h, P: 0.5 h)
